Target: Melanocortin receptor 3 (Homo sapiens); note: in other assays of this panel Not Active means under 50% inhibition at 10 µM
Sequence (P41968 whole entry): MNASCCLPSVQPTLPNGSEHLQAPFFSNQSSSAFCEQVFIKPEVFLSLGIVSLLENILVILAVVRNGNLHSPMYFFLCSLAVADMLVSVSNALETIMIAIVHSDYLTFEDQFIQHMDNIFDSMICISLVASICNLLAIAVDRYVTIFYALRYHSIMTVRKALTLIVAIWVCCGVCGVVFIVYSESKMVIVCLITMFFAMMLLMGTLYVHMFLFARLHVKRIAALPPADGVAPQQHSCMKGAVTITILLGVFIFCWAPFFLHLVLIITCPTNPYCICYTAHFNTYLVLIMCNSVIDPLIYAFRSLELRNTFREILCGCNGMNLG
Format: cell membranes, HEK293, Membrane
Conditions: read-out: Ki
value.kind: Ki
Lab note: write values as number then unit, every time.

# value of Ki, Melanocortin receptor 3 (Homo sapiens), item Cc1c(C)c2c(c(C)c1O)CCC(C)(CN1CCN(c3cc(N4CCCC4)nc(N4CCCC4)n3)CC1)O2 (stereo unspecified) = 15.1 µM

----------
Target: Progesterone receptor (Bos taurus, UniProt Q690N0)
Sequence (Q690N0 whole entry): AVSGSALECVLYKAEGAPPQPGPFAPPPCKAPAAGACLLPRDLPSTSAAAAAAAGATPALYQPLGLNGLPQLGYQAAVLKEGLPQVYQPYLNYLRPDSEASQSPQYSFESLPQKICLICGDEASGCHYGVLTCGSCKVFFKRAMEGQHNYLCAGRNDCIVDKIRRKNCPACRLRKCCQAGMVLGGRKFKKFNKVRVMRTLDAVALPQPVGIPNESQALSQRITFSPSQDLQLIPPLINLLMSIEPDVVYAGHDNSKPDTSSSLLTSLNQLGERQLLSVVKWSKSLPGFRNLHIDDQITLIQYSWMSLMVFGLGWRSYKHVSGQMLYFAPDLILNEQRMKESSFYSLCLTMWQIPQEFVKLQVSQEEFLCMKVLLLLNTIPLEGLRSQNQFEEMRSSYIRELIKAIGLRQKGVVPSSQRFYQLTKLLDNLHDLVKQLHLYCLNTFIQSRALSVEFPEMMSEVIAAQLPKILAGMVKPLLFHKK
Assay: DRUGMATRIX: Progesterone radioligand binding (ligand: [3H] R-5020)
Type: tissue-based, Uterus
Settings: Not Active = under 50% inhibition at 10 µM
value.kind: IC50

# example entries with known answers
| molecule | system.tested | IC50 |
| --- | --- | --- |
| CCn1cc(C(=O)O)c(=O)c2cnc(N3CCCC3)nc21 | Progesterone receptor (Bos taurus, UniProt Q690N0) | Not Active |
| CC(C)=CCC/C(C)=C/CO | Progesterone receptor (Bos taurus, UniProt Q690N0) | Not Active |
| C[C@@H]1CC[C@@]2(OC1)O[C@H]1[C@@H](O)[C@H]3[C@@H]4CC[C@H]5C[C@@H](O[C@@H]6O[C@H](CO)[C@H](O[C@@H]7O[C@H](CO)C(O)[C@H](O[C@@H]8OC[C@@H](O)[C@H](O)[C@H]8O)[C@H]7O[C@@H]7O[C@H](CO)[C@H](O)[C@H](O[C@@H]8O[C@H](CO)[C@@H](O)[C@H](O)[C@H]8O)[C@H]7O)[C@H](O)[C@H]6O)[C@H](O)C[C@]5(C)[C@H]4CC[C@]3(C)[C@H]1[C@@H]2C (stereo not given in full) | Progesterone receptor (Bos taurus, UniProt Q690N0) | Not Active |
| COc1ccc(CCN(C)CCCC(C#N)(c2ccc(OC)c(OC)c2)C(C)C)cc1OC (stereo not given) | Progesterone receptor (Bos taurus, UniProt Q690N0) | Not Active |

Attention now shifts to the item below.
IC50 measured on `CCC1(CCC(C)C)C(=O)NC(=O)NC1=O` = Not Active

----------
Molecular target: Epidermal growth factor receptor (Homo sapiens)
Sequence (P00533 whole entry): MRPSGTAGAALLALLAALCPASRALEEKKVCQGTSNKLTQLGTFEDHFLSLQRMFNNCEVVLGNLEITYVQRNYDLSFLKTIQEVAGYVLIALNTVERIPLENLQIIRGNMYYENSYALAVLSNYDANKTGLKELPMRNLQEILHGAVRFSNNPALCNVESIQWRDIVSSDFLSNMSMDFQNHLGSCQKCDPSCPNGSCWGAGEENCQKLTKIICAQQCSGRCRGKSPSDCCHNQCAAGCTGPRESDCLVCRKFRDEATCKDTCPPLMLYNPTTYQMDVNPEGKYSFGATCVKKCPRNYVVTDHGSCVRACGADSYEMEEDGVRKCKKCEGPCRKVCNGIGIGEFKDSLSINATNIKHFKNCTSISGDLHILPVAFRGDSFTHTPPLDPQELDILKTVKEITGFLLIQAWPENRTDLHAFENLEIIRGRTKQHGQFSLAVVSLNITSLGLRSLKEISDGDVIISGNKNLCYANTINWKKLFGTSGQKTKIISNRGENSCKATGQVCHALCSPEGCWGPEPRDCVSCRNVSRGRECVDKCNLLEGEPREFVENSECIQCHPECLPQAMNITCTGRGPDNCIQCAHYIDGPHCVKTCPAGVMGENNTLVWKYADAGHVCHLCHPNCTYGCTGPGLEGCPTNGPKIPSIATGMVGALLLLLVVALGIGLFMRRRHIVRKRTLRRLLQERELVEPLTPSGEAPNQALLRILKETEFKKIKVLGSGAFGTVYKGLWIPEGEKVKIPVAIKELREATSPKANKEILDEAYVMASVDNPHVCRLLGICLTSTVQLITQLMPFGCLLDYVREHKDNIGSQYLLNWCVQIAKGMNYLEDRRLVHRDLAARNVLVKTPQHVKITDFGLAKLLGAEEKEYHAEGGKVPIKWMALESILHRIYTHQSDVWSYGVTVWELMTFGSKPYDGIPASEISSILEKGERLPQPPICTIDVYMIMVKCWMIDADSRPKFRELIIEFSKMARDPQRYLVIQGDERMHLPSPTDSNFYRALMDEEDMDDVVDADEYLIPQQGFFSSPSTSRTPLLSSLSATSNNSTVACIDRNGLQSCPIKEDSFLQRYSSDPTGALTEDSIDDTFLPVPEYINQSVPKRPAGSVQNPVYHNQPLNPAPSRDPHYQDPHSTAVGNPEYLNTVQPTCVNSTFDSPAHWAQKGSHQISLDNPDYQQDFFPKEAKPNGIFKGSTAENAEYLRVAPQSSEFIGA
Test: DRUGMATRIX: Protein Tyrosine Kinase, EGF Receptor enzyme inhibition (substrate: Poly(Glu:Tyr))
Format: cell-based, Insect cells
Conditions: Not Active = under 50% inhibition at 10 µM; read-out: IC50
value.kind: pIC50
Interpret pIC50 as the negative base-10 log of the concentration measured in mol/L.

| compound | pIC50 |
| --- | --- |
| Oc1cccc(O)c1O [PYROGALLOL] | 5.91 |
| Oc1c(Cl)cc(Cl)c(Cl)c1Cc1c(O)c(Cl)cc(Cl)c1Cl [HEXACHLOROPHENE] | 6.13 |
| Clc1ccc(COC(Cn2ccnc2)c2ccc(Cl)cc2Cl)cc1 (stereo not given) [ECONAZOLE] | 4.49 |
| CCN(CC)CCOc1ccc(/C(=C(/Cl)c2ccccc2)c2ccccc2)cc1 [ENCLOMIPHENE] | 5.98 |

Attention now shifts to the item below.
# value of pIC50, Epidermal growth factor receptor (Homo sapiens), item O=C(Nc1ccc(Br)cc1)c1cc(Br)cc(Br)c1O [TRIBROMSALAN] = 5.52

----------
Molecular target: Protein kinase C alpha type (Homo sapiens); note: in other assays of this panel Not Active means under 50% inhibition at 10 µM;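 note: inhibition of PKCalpha kinase activity measured in an enzyme assay with histone as the phosphorylation substrate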
Type: cell-based
Settings: sf9
value.kind: IC50

| compound | system.tested | recorded.measurement |
| --- | --- | --- |
| CC(=O)O[C@H]1C(=O)[C@@]2(C)[C@H]([C@H](OC(=O)c3ccccc3)[C@]3(O)C[C@H](OC(=O)[C@H](O)[C@@H](NC(=O)c4ccccc4)c4ccccc4)C(C)=C1C3(C)C)[C@]1(OC(C)=O)CO[C@@H]1C[C@@H]2O | Protein kinase C alpha type (Homo sapiens) | Not Active |
| CN(C)CC[C@@H](c1ccc(Cl)cc1)c1ccccn1 | Protein kinase C alpha type (Homo sapiens) | Not Active |
| NC1CCN(c2nc3c(cc2F)c(=O)c(C(=O)O)cn3-c2ccc(F)cc2F)C1 (stereo not drawn) | Protein kinase C alpha type (Homo sapiens) | Not Active |

----------
Target: 5-hydroxytryptamine receptor 4 (Cavia porcellus, UniProt O70528); note: in other assays of this panel Not Active means under 50% inhibition at 10 µM
Sequence (O70528 whole entry): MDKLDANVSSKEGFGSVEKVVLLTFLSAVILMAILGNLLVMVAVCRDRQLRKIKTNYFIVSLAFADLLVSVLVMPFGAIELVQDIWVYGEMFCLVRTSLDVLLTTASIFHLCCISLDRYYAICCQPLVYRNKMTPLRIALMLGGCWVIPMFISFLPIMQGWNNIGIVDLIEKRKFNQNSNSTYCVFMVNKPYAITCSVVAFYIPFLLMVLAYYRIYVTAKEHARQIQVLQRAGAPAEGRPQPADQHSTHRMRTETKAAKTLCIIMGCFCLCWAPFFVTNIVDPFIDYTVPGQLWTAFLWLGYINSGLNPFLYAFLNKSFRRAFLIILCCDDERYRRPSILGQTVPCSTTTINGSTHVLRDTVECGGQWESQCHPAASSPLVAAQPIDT
Assay type: cell membranes, Dunkin-Hartley, Striatum, Membrane
Conditions: read-out: Ki
value.kind: Ki (nM)
// units = nM; emit number, no label

Ki measured on COc1ccc2cc3[n+](cc2c1OC)CCc1cc2c(cc1-3)OCO2.[Cl-] [BERBERINE CHLORIDE] = 370

----------
Biological target: UniProt:P06241
Sequence (P06241 whole entry): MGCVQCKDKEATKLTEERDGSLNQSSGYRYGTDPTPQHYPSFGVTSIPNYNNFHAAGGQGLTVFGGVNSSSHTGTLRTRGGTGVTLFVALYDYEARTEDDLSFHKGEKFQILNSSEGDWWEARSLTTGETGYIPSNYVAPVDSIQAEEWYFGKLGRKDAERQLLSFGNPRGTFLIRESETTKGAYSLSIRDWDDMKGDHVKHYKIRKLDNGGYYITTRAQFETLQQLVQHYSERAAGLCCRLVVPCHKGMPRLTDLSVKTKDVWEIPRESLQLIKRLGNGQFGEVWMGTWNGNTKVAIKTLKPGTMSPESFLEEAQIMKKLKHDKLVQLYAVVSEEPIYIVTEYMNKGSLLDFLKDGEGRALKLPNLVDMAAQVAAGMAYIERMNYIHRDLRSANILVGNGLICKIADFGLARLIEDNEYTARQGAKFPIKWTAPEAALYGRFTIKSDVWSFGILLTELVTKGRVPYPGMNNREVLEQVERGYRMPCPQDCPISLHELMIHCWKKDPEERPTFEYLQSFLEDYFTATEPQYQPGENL
Assay: biochemical
Type: cell-based, Insect cells
Settings: insect cells
value.kind: IC50

| molecule | recorded.measurement |
| --- | --- |
| CC(C)NNC(=O)c1ccncc1 | Not Active |
| CC(C(=O)O)c1ccc2oc(-c3ccc(Cl)cc3)nc2c1 (centres undefined) | Not Active |
| CC(=O)[C@H]1[C@H](C#N)C[C@H]2[C@@H]3CC=C4C[C@@H](O)CC[C@]4(C)[C@H]3CC[C@@]21C | Not Active |
| COc1cc(N)c(Cl)cc1C(=O)NC1CCN(CCCOc2ccc(F)cc2)CC1OC (centres undefined) [CISAPRIDE] | Not Active |

----------
Assay: DRUGMATRIX: beta-Lactamase enzyme inhibition (substrate: Nitrocefin)
Design: species or system Bacillus cereus
Conditions: Not Active = under 50% inhibition at 10 µM
value.kind: IC50

# example entries with known answers
| molecule | value.kind | recorded.measurement |
| --- | --- | --- |
| O=c1cc(N2CCOCC2)oc2c(-c3ccccc3)cccc12 [LY-294002] | IC50 | Not Active |
| Nc1cc(N2CCCCC2)nc(N)[n+]1[O-] [MINOXIDIL] | IC50 | Not Active |
| CC(=O)[C@H]1[C@H](C#N)C[C@H]2[C@@H]3CC=C4C[C@@H](O)CC[C@]4(C)[C@H]3CC[C@@]21C [PREGNENOLONE CARBONITRILE] | IC50 | Not Active |
| C[C@@H]1C[C@H]2[C@@H]3CCC4=CC(=O)C=C[C@]4(C)[C@@]3(F)[C@@H](O)C[C@]2(C)[C@@]1(O)C(=O)CO [DEXAMETHASONE] | IC50 | Not Active |
| CC(=O)O[C@H]1C(=O)[C@@]2(C)[C@H]([C@H](OC(=O)c3ccccc3)[C@]3(O)C[C@H](OC(=O)[C@H](O)[C@@H](NC(=O)c4ccccc4)c4ccccc4)C(C)=C1C3(C)C)[C@]1(OC(C)=O)CO[C@@H]1C[C@@H]2O [PACLITAXEL] | IC50 | Not Active |
| C[n+]1ccc(-c2cc[n+](C)cc2)cc1.[Cl-].[Cl-] [PARAQUAT DICHLORIDE] | IC50 | Not Active |
| COC(=O)Nc1nc2ccc([S+]([O-])c3ccccc3)cc2[nH]1 (stereo not given) [OXFENDAZOLE] | IC50 | Not Active |
| OC(CCCN1CCCCC1)(c1ccccc1)c1ccccc1 [DIPHENIDOL] | IC50 | Not Active |
| Oc1c(Cl)cc(Cl)c(Cl)c1Cc1c(O)c(Cl)cc(Cl)c1Cl [HEXACHLOROPHENE] | IC50 | Not Active |
| CN1[C@@H]2CC[C@H]1C[C@@H](OC(=O)C(CO)c1ccccc1)C2 (stereo not given in full) [ATROPINE] | IC50 | Not Active |

IC50 measured on Cc1c(OCC(F)(F)F)ccnc1C[S+]([O-])c1nc2ccccc2[nH]1 (stereo not given) [LANSOPRAZOLE] = Not Active

IC50 measured on COC1=C(OC)C(=O)C(CCCCCCCCCCO)=C(C)C1=O [IDEBENONE] = Not Active

IC50 measured on NC1CCN(c2nc3c(cc2F)c(=O)c(C(=O)O)cn3-c2ccc(F)cc2F)C1 (stereo not given) [TOSUFLOXACIN] = Not Active

IC50 measured on C[C@]12C=CC(=O)C=C1CC[C@@H]1[C@@H]2[C@@H](O)C[C@@]2(C)[C@H]1CC[C@]2(O)C(=O)CO [PREDNISOLONE] = Not Active

IC50 measured on NC(=O)C[S+]([O-])C(c1ccccc1)c1ccccc1 (stereo not given) [MODAFINIL] = Not Active

IC50 measured on CCCNCC(O)COc1ccccc1C(=O)CCc1ccccc1 (stereo not given) [PROPAFENONE] = Not Active

IC50 measured on COc1c2occc2cc2ccc(=O)oc12 [METHOXSALEN] = Not Active

IC50 measured on CC(C)c1cccc(C(C)C)c1O [PROPOFOL] = Not Active
